targetOfAssay: Trypanothione reductase (Leishmania amazonensis) (UniProt A5JV95)
Sequence (A5JV95 as listed by the source): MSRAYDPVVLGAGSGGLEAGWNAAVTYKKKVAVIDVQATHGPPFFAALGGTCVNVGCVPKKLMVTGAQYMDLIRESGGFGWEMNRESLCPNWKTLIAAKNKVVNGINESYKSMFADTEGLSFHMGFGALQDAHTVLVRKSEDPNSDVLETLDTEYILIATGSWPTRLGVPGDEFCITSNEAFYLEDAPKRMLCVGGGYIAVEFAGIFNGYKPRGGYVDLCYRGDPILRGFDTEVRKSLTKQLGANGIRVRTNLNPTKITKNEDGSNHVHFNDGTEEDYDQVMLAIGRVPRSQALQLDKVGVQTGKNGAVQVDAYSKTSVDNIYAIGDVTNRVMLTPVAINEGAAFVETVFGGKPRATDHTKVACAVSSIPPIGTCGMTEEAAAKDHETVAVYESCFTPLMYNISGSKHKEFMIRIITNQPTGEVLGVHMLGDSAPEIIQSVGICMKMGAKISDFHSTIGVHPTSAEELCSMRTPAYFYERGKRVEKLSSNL
experimentNotes: Inhibition of trypanothione reductase in Leishmania amazonensis MHOM/BR/LTB0016 extracts assessed as NADPH consumption using trypanothione disulfide as substrate at 1 uM after 5 sec by spectrophotometer
The source made the active and inactive calls. The calls are words filed in the database; no cut-off is given here.
assayEndpoint: inhibition

> print(dat)
                       smilesrepresentation                             targetofassay  reportedresult
1  O=[N+]([O-])c1ccc(/C=C/c2sc(Nc3ccccc3)n[n+]2-c2ccccc2)cc1  Trypanothione reductase (Leishmania amazonensis) (UniProt A5JV95)             76%
2  COc1ccc(/C=C/c2sc(Nc3ccccc3)n[n+]2-c2ccccc2)cc1  Trypanothione reductase (Leishmania amazonensis) (UniProt A5JV95)        inactive
3  C(=C\c1sc(Nc2ccccc2)n[n+]1-c1ccccc1)/c1ccccc1  Trypanothione reductase (Leishmania amazonensis) (UniProt A5JV95)        inactive
4  COc1cccc(/C=C/c2sc(Nc3ccccc3)n[n+]2-c2ccccc2)c1  Trypanothione reductase (Leishmania amazonensis) (UniProt A5JV95)        inactive
